# Ki annotations
# tested system: 5-hydroxytryptamine receptor 7 (Cavia porcellus, UniProt P50407)
# Sequence (P50407 whole entry): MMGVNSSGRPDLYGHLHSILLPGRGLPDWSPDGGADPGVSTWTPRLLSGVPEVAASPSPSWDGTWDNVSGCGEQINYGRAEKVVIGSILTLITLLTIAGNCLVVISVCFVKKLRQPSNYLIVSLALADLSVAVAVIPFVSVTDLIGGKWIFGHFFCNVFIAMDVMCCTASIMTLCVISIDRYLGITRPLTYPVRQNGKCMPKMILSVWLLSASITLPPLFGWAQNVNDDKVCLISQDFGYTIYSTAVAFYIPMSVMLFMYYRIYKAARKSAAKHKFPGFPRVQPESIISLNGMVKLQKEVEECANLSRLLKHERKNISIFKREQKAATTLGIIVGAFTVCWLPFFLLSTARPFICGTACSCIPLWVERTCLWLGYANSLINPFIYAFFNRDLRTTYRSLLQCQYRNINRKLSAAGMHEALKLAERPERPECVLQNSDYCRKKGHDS
Only the number, expressed in nM, is required.

{"compound": "O=C(CCCN1CCC2(CC1)C(=O)NCN2c1ccccc1)c1ccc(F)cc1", "assay result": 100}
{"compound": "CN(C)CCc1c[nH]c2ccc(O)cc12 [3-[2-(dimethylamino)ethyl]indol-5-ol]", "assay result": 19.9}
{"compound": "NCCc1c[nH]c2ccc(O)cc12 [[3H]-5-HT]", "assay result": 1}
{"compound": "COc1ccc2[nH]cc(CCN)c2c1", "assay result": 1}
{"compound": "CC[C@@H](CO)NC(=O)[C@@H]1C=C2c3cccc4c3c(cn4C)C[C@H]2N(C)C1", "assay result": 39.8}
{"compound": "CCCN(CCC)C1CCc2cccc(O)c2C1 (configuration not stated)", "assay result": 50.1}

Considering "CNS(=O)(=O)Cc1ccc2[nH]cc(CCN(C)C)c2c1" , its Ki with 5-hydroxytryptamine receptor 7 (Cavia porcellus, UniProt P50407) was recorded as 251

Data origin, for the record: BindingDB's records for doi:10.1046/j.1471-4159.1994.63020456.x
